# System: RhV-14 (Rhinovirus)
# measurement-notes: microbe, parasite or virus in culture
# Format: cell-based
# condition-context: Enterovirus, 120 h, 120 hours at 32° C.; read-out: IC50, RhV-14 (50 percent inhibition of plaque formation)

>  <compound>
C#CC=C(c1cc(F)cc(F)c1)c1ccc2nc(N)n(S(=O)(=O)C(C)C)c2c1 [29 (trans)]

>  <tested-system>
RhV-14 (Rhinovirus)

>  <IC50 [µg/mL]>
0.236

$$$$
>  <compound>
C#CC=C(c1ccc(F)c(F)c1)c1ccc2nc(NS(C)(=O)=O)n(S(=O)(=O)C(C)C)c2c1 [18 (trans)]

>  <tested-system>
RhV-14 (Rhinovirus)

>  <IC50 [µg/mL]>
1.88

$$$$
>  <compound>
C#C/C=C(\c1ccc(F)cc1)c1ccc2nc(N)n(S(=O)(=O)C(C)C)c2c1 [1B (trans)]

>  <tested-system>
RhV-14 (Rhinovirus)

>  <IC50 [µg/mL]>
0.101

$$$$
>  <compound>
C#CC=C(c1ccccc1)c1cc2c(cc1C)nc(N)n2S(=O)(=O)C(C)C [23 (trans)]

>  <tested-system>
RhV-14 (Rhinovirus)

>  <IC50 [µg/mL]>
3.9

$$$$
>  <compound>
CC#CC=C(c1cccc(F)c1)c1ccc2nc(N)n(S(=O)(=O)C(C)C)c2c1 [33D (trans)]

>  <tested-system>
RhV-14 (Rhinovirus)

>  <IC50 [µg/mL]>
0.19

$$$$
>  <compound>
CC(C)S(=O)(=O)n1c(N)nc2ccc(/C(=C\C#C[Si](C)(C)C)c3ccc(F)cc3)cc21 [1A (cis)]

>  <tested-system>
RhV-14 (Rhinovirus)

>  <IC50 [µg/mL]>
3.9

$$$$
>  <compound>
C#CC=C(c1ccc(F)c(F)c1)c1ccc2nc(N)n(S(=O)(=O)C(C)C)c2c1 [20 (trans)]

>  <tested-system>
RhV-14 (Rhinovirus)

>  <IC50 [µg/mL]>
0.155

$$$$
>  <compound>
CC(C)S(=O)(=O)n1c(N)nc2ccc(/C(=C/C#C[Si](C)(C)C)c3ccc(F)cc3)cc21 [1A (trans)]

>  <tested-system>
RhV-14 (Rhinovirus)

>  <IC50 [µg/mL]>
10.9

$$$$

* * *

Measured IC50, listed per entry for reference.
# System: RhV-14 (Rhinovirus)
# measurement-notes: microbe, parasite or virus in culture
# Assay type: cell-based
# condition-context: Enterovirus, 120 h, 120 hours at 32° C.; read-out: IC50, RhV-14 (50 percent inhibition of plaque formation)

>  <compound>
C#CC=C(c1cccc(F)c1)c1ccc2nc(N)n(S(=O)(=O)N(C)C)c2c1 [16B (trans)]

>  <IC50 (µg/mL)>
0.038

$$$$
>  <compound>
C#C/C=C(\c1cccc(C(F)(F)F)c1)c1ccc2nc(N)n(S(=O)(=O)C(C)C)c2c1 [14 (trans)]

>  <IC50 (µg/mL)>
0.331

$$$$
>  <compound>
C#CC=C(c1cccc(Cl)c1)c1ccc2nc(N)n(S(=O)(=O)C(C)C)c2c1 [27 (trans)]

>  <IC50 (µg/mL)>
0.253

$$$$

* * *

Property: IC50, RhV-14 (50 percent inhibition of plaque formation); scope: individual compounds
# System: RhV-14 (Rhinovirus)
# measurement-notes: microbe, parasite or virus in culture
# Assay type: cell-based
# condition-context: 120 hours at 32° C.
assay-readout: IC50, RhV-14 (50 percent inhibition of plaque formation) (µg/mL)

>  <compound>
C#CC=C(c1ccc(OC)c(F)c1)c1ccc2nc(N)n(S(=O)(=O)C(C)C)c2c1 [25 (cis)]

>  <readout-value>
0.428

$$$$
>  <compound>
C#CC=C(c1ccc2nc(N)n(S(=O)(=O)C(C)C)c2c1)c1ccccc1F [21 (trans)]

>  <readout-value>
0.078

$$$$
>  <compound>
C#CC=C(c1ccc(OC)c(F)c1)c1ccc2nc(N)n(S(=O)(=O)C(C)C)c2c1 [25 (trans)]

>  <readout-value>
0.065

$$$$
>  <compound>
C#CC=C(c1cccc(F)c1)c1ccc2nc(N)n(S(=O)(=O)N(C)C)c2c1 [17 (trans)]

>  <readout-value>
0.071

$$$$
>  <compound>
C#CC=C(c1ccc2nc(N)n(S(=O)(=O)C(C)C)c2c1)c1ccccc1F [21 (cis)]

>  <readout-value>
0.478

$$$$

FYI, the data here is from patent US5693661A.
